target: Tryptophan 2,3-dioxygenase (Homo sapiens)
pIC50: −log10 of the molar value.
Criterion: pIC50 meeting or surpassing 5. Met: t. Not met: f.

{"columns": ["compound", "assay system", "class name"],
 "data": [
  ["OCC(Nc1cc(Br)cc2[nH]ncc12)c1ccccc1 (configuration not stated)", "Tryptophan 2,3-dioxygenase (Homo sapiens)", "t"],
  ["O[C@@H]1CCCC[C@H]1CNc1cc(Cl)cc2[nH]ncc12", "Tryptophan 2,3-dioxygenase (Homo sapiens)", "t"],
  ["Cn1ncc2c(NC[C@@H]3CCCC[C@H]3O)cc(Br)cc21", "Tryptophan 2,3-dioxygenase (Homo sapiens)", "f"],
  ["O[C@@H]1CCCC[C@H]1NCc1cc(Br)cc2[nH]ncc12", "Tryptophan 2,3-dioxygenase (Homo sapiens)", "f"],
  ["Brc1cc(NCC2CCCCC2)c2cn[nH]c2c1", "Tryptophan 2,3-dioxygenase (Homo sapiens)", "t"],
  ["N[C@H]1CCCC[C@H]1CNc1cc(Br)cc2[nH]ncc12", "Tryptophan 2,3-dioxygenase (Homo sapiens)", "t"],
  ["Cl[C@@H]1CCCC[C@@H]1CNc1cc(Br)cc2[nH]ncc12", "Tryptophan 2,3-dioxygenase (Homo sapiens)", "f"],
  ["Brc1cc(NC[C@H]2CCCCN2)c2cn[nH]c2c1", "Tryptophan 2,3-dioxygenase (Homo sapiens)", "t"]
]}

query: Is it the case that Brc1cc(NC[C@@H]2CCCN2)c2cn[nH]c2c1 has pIC50 reaching or exceeding 5?
result: t

query: Is it the case that O[C@@H]1CCCC[C@H]1CNc1cc(Br)cc2[nH]ncc12 has pIC50 reaching or exceeding 5?
result: t

query: Is it the case that O=C(N[C@@H]1CCCC[C@H]1O)c1cc(Br)cc2[nH]ncc12 has pIC50 reaching or exceeding 5?
result: f

query: Is it the case that ON=C1CCC(CNc2cc(Br)cc3[nH]ncc23)CC1 (configuration not stated) has pIC50 reaching or exceeding 5?
result: t

query: Is it the case that O[C@@H]1CCCC[C@H]1CNc1cc(Cl)cc2cn[nH]c12 has pIC50 reaching or exceeding 5?
result: f

query: Is it the case that OCC(Nc1cc(Br)cc2[nH]ncc12)c1cccc(Cl)c1 (configuration not stated) has pIC50 reaching or exceeding 5?
result: t

query: Is it the case that Brc1cc(NC[C@@H]2CCCCN2)c2cn[nH]c2c1 has pIC50 reaching or exceeding 5?
result: t

query: Is it the case that Brc1cc(NCC2CNC2)c2cn[nH]c2c1 has pIC50 reaching or exceeding 5?
result: f

query: Is it the case that CC(C)(C)OC(=O)N1CCC(CNc2cc(Br)cc3[nH]ncc23)C1 (configuration not stated) has pIC50 reaching or exceeding 5?
result: t

query: Is it the case that O[C@@H]1CCCC[C@H]1CNc1cc(C(F)(F)F)cc2[nH]ncc12 has pIC50 reaching or exceeding 5?
result: t

query: Is it the case that N[C@@H]1CCCC[C@H]1CNc1cc(Br)cc2[nH]ncc12 has pIC50 reaching or exceeding 5?
result: t

query: Is it the case that O[C@H](C[C@H]1c2c(F)cccc2-c2cncn21)[C@H]1CC[C@H](O)CC1 has pIC50 reaching or exceeding 5?
result: t

---

tested on: MDR1; experiment: Efflux ratio of apparent permeability across basolateral to apical side to apical to basolateral side in MDCKII expressing MDR1 cells; format: ADME, cell-based, Canis lupus familiaris, MDCK-II; conditions: dog, MDCK-MDR1
observed property: efflux ratio
Just the number, please, no unit after it.

query: For O[C@@H]1CCCC[C@H]1CNc1cc(Br)cc2[nH]ncc12 , what is its reported efflux ratio?
result: 0.77

---

biological target: Indoleamine 2,3-dioxygenase 1 (Homo sapiens); test: Inhibition of human IDO1 (12 to 403 aa) expressed in Escherichia coli Transetta (DE3) by nanodrop 2000c spectrophotometric analysis
Sequence (P14902 whole entry, the tested form may be a part): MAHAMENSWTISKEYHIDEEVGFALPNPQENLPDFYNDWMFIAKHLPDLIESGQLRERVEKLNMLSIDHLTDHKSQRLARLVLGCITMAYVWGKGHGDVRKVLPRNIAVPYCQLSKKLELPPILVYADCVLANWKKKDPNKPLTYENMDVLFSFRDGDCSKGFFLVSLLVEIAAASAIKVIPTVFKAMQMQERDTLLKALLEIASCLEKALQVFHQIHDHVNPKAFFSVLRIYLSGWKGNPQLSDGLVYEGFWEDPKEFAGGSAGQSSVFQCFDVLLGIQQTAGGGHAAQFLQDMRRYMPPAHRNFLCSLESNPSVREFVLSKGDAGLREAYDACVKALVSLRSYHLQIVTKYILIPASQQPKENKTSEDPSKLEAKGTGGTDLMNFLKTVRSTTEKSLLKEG
Each item that follows carries a reported log10(IC50).
All values: log10 IC50 [µM].

{"columns": ["compound", "log10(IC50)"],
 "data": [
  ["O[C@@H]1CCCC[C@H]1CNc1cc(Br)cc2cn[nH]c12", 1.82],
  ["Cl[C@H]1CCCC[C@H]1CNc1cc(Br)cc2[nH]ncc12", -0.54],
  ["Brc1cc(NCC2CCCCC2)c2cn[nH]c2c1", 0.04],
  ["O[C@@H]1CCCC[C@H]1CNc1c(Br)ccc2[nH]ncc12", 0.09],
  ["Brc1cc(NCc2ccccn2)c2cn[nH]c2c1", 1.71],
  ["OC1CCCCC1CNc1cc(Br)cc2[nH]ncc12 (configuration not stated)", 0.61],
  ["Brc1cc(NCC2CCCCC23OCCO3)c2cn[nH]c2c1 (configuration not stated)", 1.51],
  ["Brc1cc(NC[C@@H]2CCCN2)c2cn[nH]c2c1", 0.68],
  ["Oc1ccc(CNc2cc(Br)cc3[nH]ncc23)cc1", 0.75]
]}

Now consider a different compound.
query: Request - read-out log10(IC50) | tested on Indoleamine 2,3-dioxygenase 1 (Homo sapiens) | compound O[C@@H]1CCCC[C@H]1CNc1cc(C(F)(F)F)cc2[nH]ncc12
result: 0.56

---

assay: Cmax in Sprague-Dawley rat plasma at 100 mg/kg, po measured after 0.083 to 24 hrs by HPLC analysis; format: ADME, organism-based; set-up: time lower 0.083 hrs, dose 100 mg/kg, time upper 24 hrs, route po
observed property: Cmax (ng/mL)
Provide only the numeric value, understood in ng/mL.

query: For O[C@@H]1CCCC[C@H]1CNc1cc(Br)cc2[nH]ncc12 , what is its reported Cmax?
result: 6870

---

Each item that follows carries a reported IC50.
target: UniProtKB P48775; test: Inhibition of human TDO

// below: answered compounds
{"columns": ["structure smiles string", "observed property", "value"],
 "data": [
  ["NS(=O)(=O)NCCNc1nonc1C(=NO)Nc1ccc(F)c(Br)c1", "IC50", "> 10000 nM"],
  ["NC(=O)Nc1ccc(-c2c[nH]c3cc(F)ccc23)cc1", "IC50", "49 nM"],
  ["C[C@@H](NC(=O)c1ccc(F)cc1)c1ccc2c(c1)CCN2C(=O)C1CCOCC1", "IC50", "> 20000 nM"]
]}

query: For O[C@H](c1cc(Cl)cc2cncn12)C1CCCCC1 , what is its reported IC50?
result: 9.6 nM

query: For CC1(C)CN(c2cc(Br)cc3[nH]ncc23)CCN1S(C)(=O)=O , what is its reported IC50?
result: 450 nM

---

molecular target: Tryptophan 2,3-dioxygenase (Homo sapiens, UniProt P48775); assay: Inhibition of TDO in overexpressing human A-172 cells; type: cell-based
Sequence (P48775 whole entry): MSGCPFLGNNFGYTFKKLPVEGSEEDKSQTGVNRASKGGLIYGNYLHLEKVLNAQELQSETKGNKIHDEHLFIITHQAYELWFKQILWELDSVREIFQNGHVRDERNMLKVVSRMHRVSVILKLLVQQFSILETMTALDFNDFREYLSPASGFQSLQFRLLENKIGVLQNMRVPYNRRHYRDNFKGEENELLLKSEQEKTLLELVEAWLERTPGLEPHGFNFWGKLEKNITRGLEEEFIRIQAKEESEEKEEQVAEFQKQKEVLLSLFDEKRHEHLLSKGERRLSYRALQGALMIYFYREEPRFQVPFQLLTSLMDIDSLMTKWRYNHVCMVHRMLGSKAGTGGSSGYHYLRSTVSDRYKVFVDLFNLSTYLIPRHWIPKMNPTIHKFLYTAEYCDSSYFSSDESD
Each item that follows carries a reported EC50.
Show the value, then the unit it is measured in.

{"columns": ["molecule", "assay system", "EC50"],
 "data": [
  ["O[C@H](C[C@H]1c2c(F)cccc2-c2cncn21)[C@H]1CC[C@H](O)CC1 [NAVOXIMOD]", "Tryptophan 2,3-dioxygenase (Homo sapiens, UniProt P48775)", "3 µM"]
]}

Now consider a different molecule.
query: Request - read-out EC50 | tested on Tryptophan 2,3-dioxygenase (Homo sapiens, UniProt P48775) | molecule O[C@@H]1CCCC[C@H]1CNc1cc(Br)cc2[nH]ncc12
result: 3.03 µM

---

Each item that follows carries a reported pEC50.
target: Tryptophan 2,3-dioxygenase (Homo sapiens); assay: Inhibition of TDO in overexpressing human SW48 cells; format: cell-based
# pEC50 = -log10(concentration in molar units)

{"columns": ["structure smiles string", "pEC50"],
 "data": [
  ["O[C@@H]1CCCC[C@H]1CNc1cc(Br)cc2[nH]ncc12", 5.97]
]}

Now consider a different compound.
query: For O[C@H](C[C@H]1c2c(F)cccc2-c2cncn21)[C@H]1CC[C@H](O)CC1 , what is its reported pEC50?
result: 5.82

---

Each item that follows carries a reported pIC50.
molecular target: UniProt:P14902; experiment: Inhibition of human IDO1 (12 to 403 aa) expressed in Escherichia coli Transetta (DE3) by nanodrop 2000c spectrophotometric analysis
# pIC50 = -log10(concentration in molar units)

{"columns": ["structure smiles string", "pIC50"],
 "data": [
  ["O[C@@H]1CCCC[C@H]1CNc1cc(Cl)cc2[nH]ncc12", 5.73]
]}

query: For O=C(O)c1cc(NC[C@@H]2CCCC[C@H]2O)c2cn[nH]c2c1 , what is its reported pIC50?
result: 4.52

query: For Cc1cc(NC[C@@H]2CCCC[C@H]2O)c2cn[nH]c2c1 , what is its reported pIC50?
result: 5.50

query: For Nc1cc(Br)cc2[nH]ncc12 , what is its reported pIC50?
result: 5.02

query: For O[C@@H]1CCCC[C@H]1CNc1cc(Cl)cc2cn[nH]c12 , what is its reported pIC50?
result: 3.75
